The entries below are paired with their reported fluorescence lifetime.
Assay: solvent given as SMILES
Details: in O
PROPERTY MEASURED: fluorescence lifetime (ns)

> print(dat)
                           structure.smiles  value.reported
1           CC1(C)C(=O)C=Cc2ccc(N3CCC3)cc21            3.83
2  CCNc1cc2oc3c/c(=[NH+]\CC)c(C)cc-3c(-c3ccccc3C(=O)OCC)c2cc1C            4.22
3                c1coc(-c2nc3ccccc3[nH]2)c1            1.67
